Attribution: the supplement of paper PMC12645437

Target: T1, CRBN, Q96SW2;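 note: pooled lentiviral library of zinc finger degron-EGFP fusions in mCherry-positive Jurkat cells, FACS-sorted after compound exposure, with degron abundance counted by next-generation sequencing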
T1 chain: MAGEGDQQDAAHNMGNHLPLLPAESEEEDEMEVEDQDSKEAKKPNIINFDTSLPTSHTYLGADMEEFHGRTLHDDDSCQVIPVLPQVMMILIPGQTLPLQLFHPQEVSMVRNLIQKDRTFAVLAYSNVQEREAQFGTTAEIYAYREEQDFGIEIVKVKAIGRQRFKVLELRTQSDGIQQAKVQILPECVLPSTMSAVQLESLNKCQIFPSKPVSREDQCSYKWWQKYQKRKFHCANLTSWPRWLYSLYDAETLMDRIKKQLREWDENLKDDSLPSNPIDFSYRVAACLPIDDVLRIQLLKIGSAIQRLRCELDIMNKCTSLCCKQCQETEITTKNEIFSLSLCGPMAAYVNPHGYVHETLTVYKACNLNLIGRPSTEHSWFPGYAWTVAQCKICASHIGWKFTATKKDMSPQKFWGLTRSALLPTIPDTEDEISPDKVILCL
Assay: log2 fold change of degron read counts, EGFP-low vs EGFP+ sorted cells (limma voom), compound-induced degradation; higher = more compound-induced degradation of the degron-EGFP fusion; degrons are variants of IKZF1/3 zinc finger 2; compound dose not given here
Conditions: Jurkat; 18 h; compound: thalidomide
In all, about 8,300 sequences were measured (“log2 fold change of degron read counts, EGFP-low vs EGFP+ sorted cells (limma voom), compound-induced degradation”: median about -1.1, highest 2% from about 3.2 on). The sample holds the highest values, similar sequences and a random draw of the others, so the mix is not that of the screen.
Items are presented alongside their recorded log2 fold change of degron read counts.

{"Sequence Content": "FYCNICGAAFTQKGNLLRHIKL [46F_47Y_49N_50I_52G_53A_54A_55F_67L_, Q9UKT9]", "log2 fold change of degron read counts": -0.259}
{"Sequence Content": "FECPICGRSFTQKGNLLRHIKL [46F_47E_49P_50I_52G_53R_54S_55F_67L_, Q9UKT9]", "log2 fold change of degron read counts": 1.14}
{"Sequence Content": "FTCDQCGASFTQKGNLLRHIKL [46F_47T_49D_50Q_52G_53A_54S_55F_67L_, Q9UKT9]", "log2 fold change of degron read counts": -1.39}
{"Sequence Content": "FGCDICGAAFTQKGNLLRHIKL [46F_47G_49D_50I_52G_53A_54A_55F_67L_, Q9UKT9]", "log2 fold change of degron read counts": -0.234}
{"Sequence Content": "FDCNQCGRCFTQKGNLLRHIKL [46F_47D_49N_50Q_52G_53R_54C_55F_67L_, Q9UKT9]", "log2 fold change of degron read counts": -1.93}
{"Sequence Content": "LYCNQCGFLCTQKGNLLRHIKL [46L_47Y_49N_50Q_52G_53F_54L_55C_67L_, Q9UKT9]", "log2 fold change of degron read counts": -1.29}
{"Sequence Content": "FVCNVCGAHFTQKGNLLRHIKL [46F_47V_49N_50V_52G_53A_54H_55F_67L_, Q9UKT9]", "log2 fold change of degron read counts": -0.327}
{"Sequence Content": "FGCEICGRGFTQKGNLLRHIKL [46F_47G_49E_50I_52G_53R_54G_55F_67L_, Q9UKT9]", "log2 fold change of degron read counts": -2.19}
{"Sequence Content": "FYCDICGAMFTQKGNLLRHIKL [46F_47Y_49D_50I_52G_53A_54M_55F_67L_, Q9UKT9]", "log2 fold change of degron read counts": -1.55}
{"Sequence Content": "LLCPICGFHCTQKGNLLRHIKL [46L_47L_49P_50I_52G_53F_54H_55C_67L_, Q9UKT9]", "log2 fold change of degron read counts": 1.51}
{"Sequence Content": "LHCPICGFDCTQKGNLLRHIKL [46L_47H_49P_50I_52G_53F_54D_55C_67L_, Q9UKT9]", "log2 fold change of degron read counts": -0.313}
{"Sequence Content": "LDCEICGFLCTQKGNLLRHIKL [46L_47D_49E_50I_52G_53F_54L_55C_67L_, Q9UKT9]", "log2 fold change of degron read counts": -0.479}
{"Sequence Content": "LQCNQCGFPCTQKGNLLRHIKL [46L_47Q_49N_50Q_52G_53F_54P_55C_67L_, Q9UKT9]", "log2 fold change of degron read counts": -1.74}
{"Sequence Content": "FLCNVCGALFTQKGNLLRHIKL [46F_47L_49N_50V_52G_53A_54L_55F_67L_, Q9UKT9]", "log2 fold change of degron read counts": -0.854}
{"Sequence Content": "FECNICGAAFTQKGNLLRHIKL [46F_47E_49N_50I_52G_53A_54A_55F_67L_, Q9UKT9]", "log2 fold change of degron read counts": 2.1}
